assay details: in vivo
run conditions: rat, SD male and female rats, oral
parameter measured: LD50

For the molecule NCCS(=O)(O)=S [thiotaurine, Aminoethyl thiosulfonate] , what LD50 is on record?
> 2000 mg/kg
